These entries and their values trace back to the nanobody polyreactivity screen of Harvey et al. (2022).

test: yeast display, Sf9 membrane polyspecificity reagent, FACS + sequencing; frameworks hold sequencing errors

>  <seq string>
QVQLVESGGGLVQAGCSLRLSCAASGRIFWMNTMGRYRQAPGKERELVAAISFRSDDTYYADSVKGRFTISRDIAKNTVYLQMKSLKPEDTAVYYCNKAWFPYYFYRFDYWGQGTQVTVSS

>  <polyreactivity (PSR sort gate)>
high polyreactivity

$$$$
>  <seq string>
QVQHVESGGGLVQARGSLRLSCAASASIYPSYAMGWYRQAPGKERELVAVINSGGSTYYADSVKGRFTISRDNAKNTVYLQMNILNPEDTAGYYCAAYRRRYPRFDYWGPGTQVTVSS

>  <polyreactivity (PSR sort gate)>
high polyreactivity

$$$$
>  <seq string>
QDQLVESGGGLVQAGGSLRLSCDASGSIFKSYAMGWFRQAPGKERELVASITYGGGRTYYADSVKGRFTISRDNAKNTVYLQMNSLKPEDTAVYYCATRLFGRSGMYYLRYDYWGQGTQVTVSS

>  <polyreactivity (PSR sort gate)>
high polyreactivity

$$$$
>  <seq string>
QVQLVESGGGLVQAGGSLRLSCAASGSIFQYNVKGWYRQEPGKEREFVADISSSGGSTYYADSVKGRFTISRDNAKNTVYLQMNSLKPEDTAVYYCNADPGYVFYRDEYWGQGTQVTVSS

>  <polyreactivity (PSR sort gate)>
low polyreactivity

$$$$
>  <seq string>
QVQLVESGGGLVQAGGSLRLSCAASGSTFRDYAMGWYRQAPGTERELVAAITSGGSTNYADSVKGRFTISRDNAKNSVYLQMISLKPEDTAVYYCNARYAGWYTPWGRQSVYSDDYWGQGTQVTVSS

>  <polyreactivity (PSR sort gate)>
low polyreactivity

$$$$
>  <seq string>
QVQHVESAAGLVQAGGSLRLTCAASGSIFRVYTMGWSRQAPGKERELVAAISRSGGRTYYADSVKGRFTISRDNAKNTVYLQMNSLKPEDTAVYYCAKRGRVTYPYYYWGQGTQVTVSS

>  <polyreactivity (PSR sort gate)>
high polyreactivity

$$$$
>  <seq string>
QVQLVESGGGLVQAGGSLRLSCAASGFTFGRYAMGWYIQAPGKERELVAAINWSGTSTYYADSVKGRFTISRDNSKNTVYLQLNILKPEDTAVYYCAVRESGYHTTLYYWGQGTQVTVSS

>  <polyreactivity (PSR sort gate)>
high polyreactivity

$$$$
>  <seq string>
QVQLVESGGGLVQAGGSLRLSCAASGITFCYNTMGWYRQAPGKERELVAAISGSGGRTYYADSVKGRFTISRDNAKNTVYLQMNSLKPEDTAVYDCAARWQIWSSLYDYWGQGTQVTVSS

>  <polyreactivity (PSR sort gate)>
high polyreactivity

$$$$
>  <seq string>
QVQLVESGGGLVQAGGSLRFSCAASGSIFKGNVMGWYRQAPGKERELVAAITWSGGSTYYADSVKGRFTISRDNAKNTVSLQMNSLKPEDTAVYNCNTRWILGRRFYYWGQGTQVTVSS

>  <polyreactivity (PSR sort gate)>
high polyreactivity

$$$$
>  <seq string>
QDQLVESGGGLVQAGGSLRLSCAASGRTFYRYAMGWSRQAPGKERELVAVISTDGSSTYYADSVKGRFTISRDNAKNTVYLQMNSLKPVDTAVYYCAARAPESYVSTRAHYYWGQGTQVTVSS

>  <polyreactivity (PSR sort gate)>
high polyreactivity

$$$$
>  <seq string>
QVQLVESGGGLVQAGGSLRLTCAASGSIFTYYVRGWYRQAPGKEMELVARISRRGGSTYYADSVKGRFTISRDNAKNTVYLQMNSLKPEDTAFYYCNRVFYYDRDNYDYWGQGTQVTVSS

>  <polyreactivity (PSR sort gate)>
high polyreactivity

$$$$
>  <seq string>
QVQLVESGGGLVQAGGSLRLSCAASGSIFWYNSMGWYRQAPGKERELVAAISYRGGRTYYADSVKGRFTISRDNAKNTVYLQMNSLKPEDTAVYYCNAPRYLGGGQDALGDYWGQGTQVTVSS

>  <polyreactivity (PSR sort gate)>
high polyreactivity

$$$$
>  <seq string>
HVQLVESGGGLVQAGGSLRLSCAASGSIFVPNAMGWYRQALGKERELVAAITYSGGDTYYADSVKGRVTISRDNAMNTVYLQMNSLKPEDTAVYYCAADNGRVGYDYWGQGTQVTVSS

>  <polyreactivity (PSR sort gate)>
low polyreactivity

$$$$
>  <seq string>
QVQLVESGGGLVQAGGSLRLSCAASGSIFVSNAMGWSRQAPGKERELVAAITRSGGSTYYADSVKGRFTISRDNAKNTVYLQMNCLKPEDTAVYYCAAATYRYGYGYWGQGTQVTVSS

>  <polyreactivity (PSR sort gate)>
high polyreactivity

$$$$
>  <seq string>
QVPLVESGGGLVLAGGSLRLSCAASGSTVDDNAMGWYRQAPGKVRELVAGISTNGGSTSYADSVKGRITISRDNAKNTVYLQMNSRKPEHTAVYYSAKGLYVQFDYWGQGTQVTVSS

>  <polyreactivity (PSR sort gate)>
low polyreactivity

$$$$
>  <seq string>
QVQLVESGGGLVQAGGSLRLSCAASGSIFDSYVMGCYRQAPGTERELVAAITYSGGSTYADSVKGRFTISRDNAKNTVYLQMNSLKPEDTAVYYCAADYYRGRYSYRYDYWGQGTQVTVSS

>  <polyreactivity (PSR sort gate)>
low polyreactivity

$$$$
>  <seq string>
QVQLVESGGGLVQAGGSLRLSCAASGSTFWGYAMGWYRQAPGKERELVATINQSAGSTYYADSVKGRFTISRDYAKNTVYLQMNSLKPEDTAVYYCAAEARVQFSYDYWGQGTQVTVSS

>  <polyreactivity (PSR sort gate)>
low polyreactivity

$$$$
>  <seq string>
QVQLVESGGGLVQAGGSLRLSCAASGFIFKRYAMGWYRQAPGKERELVATISNSGGRTYYADSVKWRFTISRDNAKNTVYLQMNSLKPEDTAVYYCAALPFWWGGYWGQGTQVTVSS

>  <polyreactivity (PSR sort gate)>
high polyreactivity

$$$$
>  <seq string>
QVQLVESGGGLVQAGGSLRLSCAASGRIFKKYAMGWYRQAPGKERELVATISSGGSTYYADSVKGRFTISRDNSKNTVYLQMNSLKPEDTAVYYCARREYVRRDYFVTTYDYWGQGTQVTVSS

>  <polyreactivity (PSR sort gate)>
low polyreactivity

$$$$
>  <seq string>
QVQLVESGGGLVQAGGSLRLSCAASGFNSHFYAMGSYRQAPGKEREFVDRISYSGGSTYYADSVKGRFTISRDNAKNTVYLQMNSLKPEDTAVYFCAADKHYFRHFGSWGQGTQVTVSS

>  <polyreactivity (PSR sort gate)>
low polyreactivity

$$$$
>  <seq string>
QVQLVESGGGLVQAGGSLRLSCAASGGIFGYYVMGRYRQAPGKERELVAVITRGGSTNYADSVKGRFTISRDNAKNTVYLQMNSLKPEDTAVYYCAKDVPYRRVRSEYWGQGTQVTVSS

>  <polyreactivity (PSR sort gate)>
low polyreactivity

$$$$
